Test system: ME-180 (Cervical Carcinoma);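 also: after 72 h of two-drug dosing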
Test: Bliss excess, mean over the matrix (fraction); higher = more synergy
assay-readout: Bliss excess
Respond numerically, and do not add a unit to the figure.

NC1(C(=O)N[C@@H](CCO)c2ccc(Cl)cc2)CCN(c2ncnc3[nH]ccc23)CC1 [Capivasertib] + CC(C)n1c(=O)n(C)c2cnc3cc(F)c(-c4ccc(OCCCN5CCCCC5)nc4)cc3c21 [AZD1390] (first compound max 10 µM, 7x7, partner max 0.3 µM) :: -0.033
C=CCn1c(=O)c2cnc(Nc3ccc(N4CCN(C)CC4)cc3)nc2n1-c1cccc(C(C)(C)O)n1 [AZD1775] + O=C(c1cc(Cc2n[nH]c(=O)c3ccccc23)ccc1F)N1CCN(C(=O)C2CC2)CC1 [Olaparib] (first compound max 1 µM, partner max 10 µM) :: -0.0244

So, Cc1c2c(nn1C)CSCc1cc(n(C)n1)CSc1cc(c3ccccc3c1)OCCCc1c(C(=O)O)n(C)c3c-2c(Cl)ccc13 [AZD5991] + CC(=O)O[C@H]1C(=O)[C@@]2(C)[C@H]([C@H](OC(=O)c3ccccc3)[C@]3(O)C[C@H](OC(=O)[C@H](O)[C@@H](NC(=O)c4ccccc4)c4ccccc4)C(C)=C1C3(C)C)[C@]1(OC(C)=O)CO[C@@H]1C[C@@H]2O [Paclitaxel] (first compound max 1 µM, 7x7, partner max 3 µM) ? Its Bliss excess was 0.0258

Briefly, Bliss excess measured for CCN(CCO)CCCOc1ccc2c(Nc3cc(CC(=O)Nc4cccc(F)c4)[nH]n3)ncnc2c1 [AZD2811] + C=CCn1c(=O)c2cnc(Nc3ccc(N4CCN(C)CC4)cc3)nc2n1-c1cccc(C(C)(C)O)n1 [AZD1775] (first compound max 1 µM, partner max 1 µM) : -0.0356
